Molecular target: T1, purified CD160 (SPR analyte) (UniProt O95971 25-159, limits assumed)
T1 sequence (looked up): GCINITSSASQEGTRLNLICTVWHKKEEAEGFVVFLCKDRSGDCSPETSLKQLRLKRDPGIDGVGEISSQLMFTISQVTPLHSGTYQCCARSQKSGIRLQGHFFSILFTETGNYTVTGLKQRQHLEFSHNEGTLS
Experiment: SPR, Biacore T200, scFv captured on CM5 chip, CD160 as analyte, single-cycle kinetics, 1:1 Langmuir fit
Measured Kd accompanies every entry in the list below.
Answer in nM, number only, no unit symbol.

Some solved cases for reference:
Binder: anti-CD160 scFv clone 2 (C25) (scFv) scFv: EVQLVESGGDLVQPGRSLKLSCAASGFTFSNYGMAWVRQAPTKGLEWVASVSNGGGNTYYRDSVKGRFTISRDNAKNTQYLQMDSLRSEDTATYYCVTHNYESTVFDYWGQGAMVTVSSGGGGSGGGGSGGGGSEIVLTQSPTTMTASPGEKVTITCRASSSVSYMHWYQQKPGASPKPWIYETSKLASGVPDRFSGSGSGTSYSLTINNMEAEDAATYYCQQWNYPSMYTFGPGTKLELKR
Endpoint unit: nM
Kd: 0.262

Binder: anti-CD160 scFv clone 4 (scFv) scFv: EVKLVESGGGLVQPGRPLKLSCAASGFTFSNYGMAWVRQAPKKGLEWVATISTGDDNTYYRDSVKGRFTISRDNAKNTQYLQMDSLRSEDTATYYCATHNYESTIFDYWGQGVMVTVSSGGGGSGGGGSGGGGSDIAITQSPASMTASPGERVTITCRASSSVSYMHWYQQKPGASPKPWIYETSKLASGVPDRFSGSGSGTSYSLTINNMEAEDAATYYCQQWNYPSMYTFGAGTKLELKR
Endpoint unit: nM
Kd: 0.12

Below: the item to evaluate.
Can you share its Kd? I mean this binder: anti-CD160 scFv clone 8 (PB9) (scFv, Rat scFv, VH-linker-VL) scFv: QVNLQESGPGLVQPSETLSLTCTVSGFSLTNYGINWFRQPPGKGLEWMGTIWNDGGTDYNSALKSRLSISRDTSKSQVFLKMNSLQTEDTAIYFCARGMDAWGQGASVTVSSGGGGSGGGGSGGGGSDIQMTQSPASLSASLGETVSIECLASEDIYNNLAWYQQKPGKSPQLLIYYANSLQDGVPSRFSGSGSGTQYSLKINSLQSEDVATYFCQQYNNYPFTFGSGTKLELKR
4.92
